- System tested: human recombinant BACE2 (Homo sapiens (Human), UniProt Q9Y5Z0)
- Sequence (Q9Y5Z0 63-518): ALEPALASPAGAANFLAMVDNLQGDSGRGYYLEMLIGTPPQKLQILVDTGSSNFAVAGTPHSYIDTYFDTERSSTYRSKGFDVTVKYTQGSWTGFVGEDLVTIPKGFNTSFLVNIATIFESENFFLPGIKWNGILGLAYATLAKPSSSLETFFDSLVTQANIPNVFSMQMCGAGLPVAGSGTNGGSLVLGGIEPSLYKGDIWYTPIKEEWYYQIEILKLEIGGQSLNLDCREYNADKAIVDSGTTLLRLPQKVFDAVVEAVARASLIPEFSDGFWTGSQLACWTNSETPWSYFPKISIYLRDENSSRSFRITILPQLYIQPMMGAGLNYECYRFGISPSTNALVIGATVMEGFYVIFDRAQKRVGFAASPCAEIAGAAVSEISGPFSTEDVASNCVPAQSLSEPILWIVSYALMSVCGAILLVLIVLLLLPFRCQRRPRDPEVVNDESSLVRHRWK
- Assay notes: In vitro enzymatic BACE2 FRET assay
- Format: biochemical
- Condition details: read-out: IC50 IP (μM) BACE2 enzyme
Property: IC50 (µM)

Example molecules with recorded IC50:
1. COC[C@]12C[C@H]1[C@@](C)(c1cc(NC(=O)c3cnc(OCC(C)C)cn3)cc(F)c1F)N=C(N)S2 : 0.226
2. CC1(NC(=O)[C@]23C[C@H]2[C@@](C)(c2cc(NC(=O)c4cnc(OCC(F)(F)F)cn4)ccc2F)N=C(N)S3)CC1 : 0.222

(1) CC#CCOc1cnc2c(Nc3ccc(F)c([C@@]4(CF)N=C(N)S[C@@]5(/C=C/C(=O)N(C)C)C[C@H]54)c3)nccc2c1
(2) CC(C)[C@@H](C)NC(=O)[C@]12C[C@H]1[C@@](C)(c1cc(NC(=O)c3cnc(OCC(F)(F)F)cn3)ccc1F)N=C(N)S2
Prompt line: Lower value of IC50 belongs to which: 1 or 2 ? Bench note: the answer is the label of the chosen record.
Response line: 2
(2: 0.0509 µM, 1: 0.0786 µM)

====

- System tested: human recombinant BACE1 (Homo sapiens (Human), UniProt P56817)
- Sequence (P56817 46-501): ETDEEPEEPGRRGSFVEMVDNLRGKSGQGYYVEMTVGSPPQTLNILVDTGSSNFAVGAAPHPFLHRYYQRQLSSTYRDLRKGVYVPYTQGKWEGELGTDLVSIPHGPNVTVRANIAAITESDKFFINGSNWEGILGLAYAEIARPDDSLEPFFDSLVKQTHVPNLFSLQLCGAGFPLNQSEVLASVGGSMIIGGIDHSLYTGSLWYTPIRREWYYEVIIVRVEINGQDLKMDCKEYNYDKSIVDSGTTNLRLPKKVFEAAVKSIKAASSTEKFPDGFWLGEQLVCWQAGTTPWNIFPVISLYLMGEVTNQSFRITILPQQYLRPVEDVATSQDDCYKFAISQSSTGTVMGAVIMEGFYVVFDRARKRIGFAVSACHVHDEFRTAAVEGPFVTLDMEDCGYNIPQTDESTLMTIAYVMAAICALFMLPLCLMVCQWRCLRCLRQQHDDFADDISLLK
- Assay notes: In vitro enzymatic BACE1 FRET assay
- Format: biochemical
- Condition details: BACE1 FRET enzyme assay; read-out: IC50 IP (μM) BACE1 enzyme
Property: IC50 (µM)

1) COC[C@@]12C[C@@H]1[C@@](CF)(c1cc(Nc3nccc4cc(C#N)cnc34)cc(F)c1F)N=C(N)S2 : 0.00682
2) N#Cc1cnc2c(Nc3ccc(F)c([C@@]4(CF)N=C(N)S[C@H]5C[C@H]54)c3)ncnc2c1 : 0.033
3) NC1=N[C@](CF)(c2cc(NC(=O)c3ccc(Cl)cn3)cc(F)c2F)[C@@H]2C[C@@H]2S1 [Example 18] : 0.0172

(a) NC1=N[C@](CF)(c2cc(Nc3nccc4nc(C(F)(F)F)cnc34)ccc2F)C2C[C@@H]2S1 (stereo in doubt)
(b) Cc1cc(C#N)cnc1C(=O)Nc1cc(F)c(F)c([C@@]2(C)N=C(N)S[C@@]3(C(F)F)C[C@@H]23)c1
(c) C#CCOc1cnc(C(=O)Nc2ccc(F)c([C@@]3(CF)N=C(N)S[C@@]4(CO)C[C@H]43)c2)c(C)n1
Prompt line: Could you please order the items by IC50, going from the lowest number to the highest? # list labels per requested ordering
Response line: b, c, a
(b: 0.00053 µM, c: 0.00095 µM, a: 0.114 µM)

====

- System tested: Recombinant Cat D (Homo sapiens (Human))
- Sequence (P07339 65-412): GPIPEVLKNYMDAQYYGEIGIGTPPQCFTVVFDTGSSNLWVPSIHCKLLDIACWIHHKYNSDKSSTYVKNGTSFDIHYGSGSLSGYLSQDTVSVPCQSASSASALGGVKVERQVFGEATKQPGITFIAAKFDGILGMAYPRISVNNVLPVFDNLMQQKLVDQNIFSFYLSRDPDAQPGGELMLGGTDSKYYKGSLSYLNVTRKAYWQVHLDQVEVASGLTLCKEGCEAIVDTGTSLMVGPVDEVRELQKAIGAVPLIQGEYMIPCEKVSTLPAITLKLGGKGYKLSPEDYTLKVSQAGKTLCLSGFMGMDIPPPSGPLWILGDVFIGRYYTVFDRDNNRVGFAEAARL
- Assay notes: In vitro enzymatic Cathepsin D (Cat D) FRET assay
- Type: biochemical
- Condition details: Cathepsin D FRET enzyme assay; read-out: IC50 IP (μM) CatD
Property: IC50 (µM)

(P) COC[C@]12C[C@H]1[C@@](C)(c1cc(Nc3ncnc4cc(C#N)cnc34)cc(F)c1F)N=C(N)S2
(Q) Cc1cc(OC(F)F)cnc1C(=O)Nc1cc(F)c(F)c([C@@]2(C)N=C(N)S[C@H]3C[C@H]32)c1
Prompt line: Lower value of IC50 belongs to which: P or Q ? Bench note: the answer is the label of the chosen record.
Response line: P

====

- System tested: human recombinant BACE1 (Homo sapiens (Human), UniProt P56817)
- Assay notes: In vitro enzymatic BACE1 FRET assay
- Type: biochemical
- Condition details: read-out: IC50 IP (μM) BACE1 enzyme
- Experimental: These recombinant proteins were further purified using Ni-NTA affinity chromatography (Qiagen). […] This assay is effectively started by the addition of FRET substrate (50 nM) and the combination is incubated for one hour. The FRET assay is terminated by addition of Tris buffer, which raises the pH to neutrality, and the fluorescence is determined. […] Proteolytic cleavage of the FRET substrate releases quenching of fluorescence (excitation 488 nm and emission 590 nm).
Property: IC50 (nM)

Example compounds with recorded IC50:
1) C#CCOc1cnc2c(Nc3ccc(F)c([C@@]4(CF)N=C(N)S[C@@]5(c6ocnc6C)C[C@@H]45)c3)ncnc2c1 [Example 788] : 1.27
2) COC[C@]12C[C@H]1[C@@](C)(c1cc(NC(=O)c3cnc(O[C@@H](C)C(F)(F)F)cn3)ccc1F)N=C(N)S2 (single isomer, unassigned) [Example 995] : 101
3) C#CCOc1cnc(C(=O)Nc2cc(C)c(F)c([C@@]3(C)N=C(N)S[C@@]4(C(F)F)C[C@@H]34)c2)cn1 [Example 1072] : 0.32

(A) CC(F)(F)COc1cnc2c(Nc3cc(F)c(F)c([C@@]4(C)N=C(N)S[C@@]5(C(F)F)C[C@@H]45)c3)nccc2n1 [Example 872]
(B) C#CCOc1cnc2c(Nc3ccc(F)c([C@@]4(C)N=C(N)S[C@]5(CO)[C@H]4C5(F)F)c3)nccc2n1 [Example 707]
Prompt line: Lower value of IC50 belongs to which: A or B ? Bench note: the answer is the label of the chosen record.
Response line: B
(B: 0.636 nM, A: 19.3 nM)

(A) COC[C@]12C[C@H]1[C@@](C)(c1cc(NC(=O)c3cnc(OCC4CCC4)cn3)cc(F)c1F)N=C(N)S2 [Example 1020]
(B) Cc1cnnn1C[C@]12C[C@H]1[C@@](CF)(c1cc(NC(=O)c3ccc(Cl)cn3)ccc1F)N=C(N)S2 [Example 725]
Prompt line: Identify the entry with the larger IC50. Options: A and B Bench note: the answer is the label of the chosen record.
Response line: B
(B: 5.65 nM, A: 1.18 nM)

(1) C[C@]1(c2cc(NC(=O)c3cnc(OCC(F)(F)F)cn3)ccc2F)N=C(N)S[C@@]2(CF)C[C@H]21 [Example 826]
(2) C#CCOc1cnc(C(=O)Nc2ccc(F)c([C@@]3(CF)N=C(N)S[C@@]4(c5cnco5)C[C@@H]34)c2)cn1 [Example 780]
Prompt line: Lower value of IC50 belongs to which: 1 or 2 ? Bench note: the answer is the label of the chosen record.
Response line: 2

(I) C[C@]1(c2cc(NC(=O)c3cnc(OCC(F)(F)F)cn3)ccc2F)N=C(N)S[C@@]2(C(=O)NCC(F)F)C[C@H]21 [Example 999]
(II) CNC(=O)/C=C/[C@]12C[C@H]1[C@@](CF)(c1cc(NC(=O)c3ccc(Cl)cn3)ccc1F)N=C(N)S2 [Example 760]
(III) COC[C@H](C)Oc1cnc2c(Nc3cc(F)c(F)c([C@@]4(C)N=C(N)S[C@@]5(C(F)F)C[C@@H]45)c3)nccc2n1 [Example 894]
(IV) C[C@]1(c2cc(Nc3nccc4cc(C#N)cnc34)cnc2F)N=C(N)S[C@@]2(CF)C[C@H]21 [Example 604]
Prompt line: # desc sort on IC50 across 4 compounds # list labels per requested ordering
Response line: IV, III, II, I
(IV: 6.24 nM, III: 3.72 nM, II: 0.415 nM, I: 0.09 nM)

====

- System tested: human recombinant BACE1 (Homo sapiens (Human))
- Assay notes: In vitro enzymatic BACE1 FRET assay
- Format: biochemical
- Condition details: read-out: IC50 IP (μM) BACE1 enzyme
Property: IC50 (µM)

(I) CC(C)NC(=O)c1cnc2c(Nc3cnc(F)c([C@@]4(C)N=C(N)S[C@@]5(C(F)F)C[C@@H]45)c3)nccc2c1 [Example 656]
(II) COC[C@]12C[C@H]1[C@@](C)(c1cc(Nc3nccc4cc(OCC#N)cnc34)cc(F)c1F)N=C(N)S2 [Example 729]
(III) C#CCOc1cnc2c(Nc3cc(F)c(F)c([C@@]4(C)N=C(N)S[C@@]5(C(=O)NC)C[C@H]54)c3)nccc2n1 [Example 915]
Prompt line: Sort the 3 compounds by IC50; largest first, smallest last. # list labels per requested ordering
Response line: I, II, III

====

- System tested: Recombinant Cat D (Homo sapiens (Human))
- Assay notes: In vitro enzymatic Cathepsin D (Cat D) FRET assay
- Format: biochemical
- Condition details: read-out: IC50 IP (μM) CatD
- Method: In Vitro Enzymatic Cathepsin D (Cat D) FRET (Fluorescence Resonance Energy Transfer) Assay Recombinant Cat D was expressed in CHO cells. The assay buffer for CathepsinD is 0.05 M citrate pH 3.5, 10% DMSO final, 5 mM CHAPS. […] The FRET assay is terminated with by addition of Tris buffer, which raises the pH to neutrality, and the fluorescence is determined. […] Proteolytic cleavage of the FRET substrate releases quenching of fluorescence (Cat D excitation 500 nm and emission 580 nm).
Property: IC50 (µM)

1. C[C@]1(c2cc(Nc3nccc4[nH]c(=O)cnc34)cc(F)c2F)N=C(N)S[C@@]2(C(F)F)C[C@@H]12 : 128
2. C#CCOc1cnc2c(Nc3cc(F)c(F)c([C@@]4(C)N=C(N)S[C@@]5(CF)C[C@H]54)c3)ncnc2c1 : 447

(P) C#CCOc1cnc(C(=O)Nc2cc(F)c(F)c([C@@]3(C)N=C(N)S[C@@]4(CNC(=O)OC(C)(C)C)C[C@H]43)c2)cn1
(Q) C#CCOc1cnc2c(Nc3ccc(F)c([C@@]4(CF)N=C(N)S[C@@]5(/C=C/C(=O)N6CC(F)(F)C6)C[C@H]54)c3)nccc2n1
Prompt line: Identify the entry with the larger IC50. Options: P and Q Bench note: the answer is the label of the chosen record.
Response line: Q

(P) Cc1noc(COc2cnc(C(=O)Nc3cc(C)c(F)c([C@@]4(C)N=C(N)S[C@@]5(C(F)F)C[C@@H]45)c3)cn2)n1
(Q) C#CCOc1cnc(C(=O)Nc2ccc(F)c([C@@]3(C)N=C(N)S[C@@]4([C@@H](O)C(F)(F)F)C[C@H]43)c2)cn1
(R) C/C(=C\[C@]12C[C@H]1[C@@](CF)(c1cc(NC(=O)c3ccc(Cl)cn3)ccc1F)N=C(N)S2)C(=O)N1CCOCC1
Prompt line: # desc sort on IC50 across 3 molecules # list labels per requested ordering
Response line: P, R, Q
(P: 1250 µM, R: 557 µM, Q: 149 µM)

(I) COC[C@]12C[C@H]1[C@@](C)(c1cc(NC(=O)c3cnc(OCc4nccs4)cn3)cc(F)c1F)N=C(N)S2
(II) C#CCOc1cnc(C(=O)Nc2cc(C)c(F)c([C@@]3(C)N=C(N)S[C@@]4(C(F)F)C[C@@H]34)c2)cn1
Prompt line: Lower value of IC50 belongs to which: I or II ? Bench note: the answer is the label of the chosen record.
Response line: II
(II: 143 µM, I: 1400 µM)
